Listing of entries alongside the reported self-cleavage kobs at 160 uM GlcN6P.
B1: glmS ribozyme (parent)
chain: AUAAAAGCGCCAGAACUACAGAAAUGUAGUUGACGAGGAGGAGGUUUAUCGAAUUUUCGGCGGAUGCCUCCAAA

# Variants of: B1
# TEST_METHOD_NOTES: self-cleavage kobs at 160 uM GlcN6P; higher = faster cleavage; RNA array
# CONDITION_INFO: with glucosamine-6-phosphate
This sample holds only a part of the variants without activity.
QUANTITY_NAME: self-cleavage kobs at 160 uM GlcN6P

{"MUTATION_NAME": "C34A A36C U45A", "MEASURED": "< 1e-05 s⁻¹"}
{"MUTATION_NAME": "U30G G51U", "MEASURED": "< 1e-05 s⁻¹"}
{"MUTATION_NAME": "A42C C50U", "MEASURED": "< 1e-05 s⁻¹"}
{"MUTATION_NAME": "G13A C34G G62U", "MEASURED": "< 1e-05 s⁻¹"}
{"MUTATION_NAME": "A14U A42G", "MEASURED": "0.00064 s⁻¹"}
{"MUTATION_NAME": "C58A C68U", "MEASURED": "3.66e-05 s⁻¹"}
{"MUTATION_NAME": "G38C U45A", "MEASURED": "< 1e-05 s⁻¹"}
{"MUTATION_NAME": "G13U A42U", "MEASURED": "< 1e-05 s⁻¹"}
{"MUTATION_NAME": "G41C G44U", "MEASURED": "< 1e-05 s⁻¹"}
{"MUTATION_NAME": "G51C A52G", "MEASURED": "< 1e-05 s⁻¹"}
{"MUTATION_NAME": "A33G G40U G59U", "MEASURED": "< 1e-05 s⁻¹"}
{"MUTATION_NAME": "G29U U69G", "MEASURED": "5.79e-05 s⁻¹"}
{"MUTATION_NAME": "C10A A33C G44A A52G U65A", "MEASURED": "< 1e-05 s⁻¹"}
{"MUTATION_NAME": "C8U U30G A36G C68U", "MEASURED": "< 1e-05 s⁻¹"}
{"MUTATION_NAME": "A14U G29U", "MEASURED": "3.57e-05 s⁻¹"}
{"MUTATION_NAME": "G43U C71G", "MEASURED": "< 1e-05 s⁻¹"}
{"MUTATION_NAME": "C8A C58G", "MEASURED": "< 1e-05 s⁻¹"}
{"MUTATION_NAME": "G51A U65G", "MEASURED": "< 1e-05 s⁻¹"}
{"MUTATION_NAME": "G37U A42U A53G", "MEASURED": "< 1e-05 s⁻¹"}
{"MUTATION_NAME": "C10U U47G", "MEASURED": "< 1e-05 s⁻¹"}
{"MUTATION_NAME": "A15C A64U", "MEASURED": "< 1e-05 s⁻¹"}
{"MUTATION_NAME": "G37C U45C", "MEASURED": "< 1e-05 s⁻¹"}
{"MUTATION_NAME": "G60U G63C C70G", "MEASURED": "< 1e-05 s⁻¹"}
{"MUTATION_NAME": "G29A U47G A53G", "MEASURED": "6.62e-05 s⁻¹"}
{"MUTATION_NAME": "A53U C67G", "MEASURED": "7.53e-05 s⁻¹"}
{"MUTATION_NAME": "A12C G43U A53C", "MEASURED": "< 1e-05 s⁻¹"}
{"MUTATION_NAME": "G29U U65A C68G", "MEASURED": "5.02e-05 s⁻¹"}
{"MUTATION_NAME": "A12C U46C", "MEASURED": "0.000265 s⁻¹"}
{"MUTATION_NAME": "A14C U30A", "MEASURED": "6.84e-05 s⁻¹"}
{"MUTATION_NAME": "U54G C67A", "MEASURED": "0.000481 s⁻¹"}
{"MUTATION_NAME": "G29C A48C", "MEASURED": "< 1e-05 s⁻¹"}
{"MUTATION_NAME": "G29U U47C", "MEASURED": "4.21e-05 s⁻¹"}
{"MUTATION_NAME": "U45A A52G", "MEASURED": "0.000155 s⁻¹"}
{"MUTATION_NAME": "A53G U55A G66U", "MEASURED": "0.000163 s⁻¹"}
{"MUTATION_NAME": "G13A C50G C61G", "MEASURED": "0.000169 s⁻¹"}
{"MUTATION_NAME": "A53G C70U", "MEASURED": "0.00129 s⁻¹"}
{"MUTATION_NAME": "A6G C71A", "MEASURED": "< 1e-05 s⁻¹"}
{"MUTATION_NAME": "U31C U55A", "MEASURED": "0.000289 s⁻¹"}
{"MUTATION_NAME": "A6U A48G", "MEASURED": "< 1e-05 s⁻¹"}
{"MUTATION_NAME": "A6U G38U G60C", "MEASURED": "< 1e-05 s⁻¹"}
{"MUTATION_NAME": "C16U U47G", "MEASURED": "0.000527 s⁻¹"}
{"MUTATION_NAME": "A14G G35A", "MEASURED": "< 1e-05 s⁻¹"}
{"MUTATION_NAME": "G38C A64G", "MEASURED": "< 1e-05 s⁻¹"}
{"MUTATION_NAME": "C10A A33G A36U G37C C61G", "MEASURED": "< 1e-05 s⁻¹"}
{"MUTATION_NAME": "U31G U69A", "MEASURED": "9.26e-05 s⁻¹"}
{"MUTATION_NAME": "A48U C50G G59U G66U", "MEASURED": "< 1e-05 s⁻¹"}
{"MUTATION_NAME": "C10U G35U A39U A48G", "MEASURED": "< 1e-05 s⁻¹"}
{"MUTATION_NAME": "G37A G59A G62A", "MEASURED": "< 1e-05 s⁻¹"}
{"MUTATION_NAME": "U55A U65C", "MEASURED": "7.83e-05 s⁻¹"}
{"MUTATION_NAME": "C11A U30C G62A", "MEASURED": "< 1e-05 s⁻¹"}
{"MUTATION_NAME": "U55A U56C", "MEASURED": "0.000191 s⁻¹"}
{"MUTATION_NAME": "C8A A15C", "MEASURED": "< 1e-05 s⁻¹"}
{"MUTATION_NAME": "C16G U47A C50U A53G", "MEASURED": "< 1e-05 s⁻¹"}
{"MUTATION_NAME": "U46G G60C A64U", "MEASURED": "< 1e-05 s⁻¹"}
{"MUTATION_NAME": "G7A U30C A64C", "MEASURED": "< 1e-05 s⁻¹"}
{"MUTATION_NAME": "U31G G43U G66U", "MEASURED": "< 1e-05 s⁻¹"}
{"MUTATION_NAME": "A39U G59C", "MEASURED": "< 1e-05 s⁻¹"}
{"MUTATION_NAME": "C16U G29A", "MEASURED": "0.00189 s⁻¹"}
{"MUTATION_NAME": "G7A G43C C71U", "MEASURED": "< 1e-05 s⁻¹"}
{"MUTATION_NAME": "A39U U65G", "MEASURED": "0.0002 s⁻¹"}
{"MUTATION_NAME": "A6G G13A", "MEASURED": "< 1e-05 s⁻¹"}
{"MUTATION_NAME": "G51C G60A U69A", "MEASURED": "< 1e-05 s⁻¹"}
{"MUTATION_NAME": "A6G G51C", "MEASURED": "< 1e-05 s⁻¹"}
{"MUTATION_NAME": "G29A U30A", "MEASURED": "5.7e-05 s⁻¹"}
{"MUTATION_NAME": "C16G G62C A64U", "MEASURED": "< 1e-05 s⁻¹"}
{"MUTATION_NAME": "G51A U57G", "MEASURED": "< 1e-05 s⁻¹"}
{"MUTATION_NAME": "A12U G40A", "MEASURED": "0.00156 s⁻¹"}
{"MUTATION_NAME": "U45A U47A", "MEASURED": "0.00413 s⁻¹"}
{"MUTATION_NAME": "A39U G41A G62U", "MEASURED": "< 1e-05 s⁻¹"}
{"MUTATION_NAME": "A6C C61U", "MEASURED": "< 1e-05 s⁻¹"}
{"MUTATION_NAME": "A48C C50U", "MEASURED": "< 1e-05 s⁻¹"}
{"MUTATION_NAME": "A39U C71U", "MEASURED": "0.00196 s⁻¹"}
{"MUTATION_NAME": "A15U C71G", "MEASURED": "4.2e-05 s⁻¹"}
{"MUTATION_NAME": "G51U A52U U65G", "MEASURED": "< 1e-05 s⁻¹"}
{"MUTATION_NAME": "C16A G35A G43A", "MEASURED": "< 1e-05 s⁻¹"}
{"MUTATION_NAME": "G32U G41A U47G C61A G62U", "MEASURED": "< 1e-05 s⁻¹"}
{"MUTATION_NAME": "G38C U47A", "MEASURED": "< 1e-05 s⁻¹"}
{"MUTATION_NAME": "C11A G41U G43C", "MEASURED": "< 1e-05 s⁻¹"}
{"MUTATION_NAME": "G13C C50G", "MEASURED": "0.00119 s⁻¹"}
{"MUTATION_NAME": "C8U C11U C16G U55G", "MEASURED": "< 1e-05 s⁻¹"}
{"MUTATION_NAME": "A15G U55G C71G", "MEASURED": "0.00025 s⁻¹"}
{"MUTATION_NAME": "G37U U69C", "MEASURED": "< 1e-05 s⁻¹"}
{"MUTATION_NAME": "G13C G32C", "MEASURED": "4.58e-05 s⁻¹"}
{"MUTATION_NAME": "G7A U54G", "MEASURED": "< 1e-05 s⁻¹"}
{"MUTATION_NAME": "U30A G41U U57G G62A", "MEASURED": "< 1e-05 s⁻¹"}
{"MUTATION_NAME": "U30G U56C", "MEASURED": "7.46e-05 s⁻¹"}
{"MUTATION_NAME": "A12G U47A C70U", "MEASURED": "5.89e-05 s⁻¹"}
{"MUTATION_NAME": "A12C A42U", "MEASURED": "3.19e-05 s⁻¹"}
{"MUTATION_NAME": "G26U U65G", "MEASURED": "0.00028 s⁻¹"}
{"MUTATION_NAME": "C11U A53U", "MEASURED": "0.000141 s⁻¹"}
{"MUTATION_NAME": "U30C U54C", "MEASURED": "4.17e-05 s⁻¹"}
